Data provenance is ChEMBL document CHEMBL3091348.

Molecular target: Hexokinase-4 (Homo sapiens, UniProt P35557)
Sequence (P35557 whole entry): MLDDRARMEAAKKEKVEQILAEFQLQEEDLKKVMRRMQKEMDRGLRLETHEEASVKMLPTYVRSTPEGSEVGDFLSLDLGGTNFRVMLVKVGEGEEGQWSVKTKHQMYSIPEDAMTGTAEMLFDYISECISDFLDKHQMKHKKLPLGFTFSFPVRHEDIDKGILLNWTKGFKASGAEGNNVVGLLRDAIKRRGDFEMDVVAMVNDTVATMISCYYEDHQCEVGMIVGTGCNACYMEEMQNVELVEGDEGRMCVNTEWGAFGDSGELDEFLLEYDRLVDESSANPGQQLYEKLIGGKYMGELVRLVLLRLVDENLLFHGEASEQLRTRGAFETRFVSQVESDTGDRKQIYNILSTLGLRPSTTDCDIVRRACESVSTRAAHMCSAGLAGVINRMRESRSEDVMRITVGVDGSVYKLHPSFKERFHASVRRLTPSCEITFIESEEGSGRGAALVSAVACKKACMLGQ
Assay: Activation of recombinant human glucokinase by G6PDH/NADP coupled assay
pEC50: −log10 of the molar value.
property.label: pEC50

Completed entries (count: 3):
Item "O=C(O)c1ccc(NC(=O)[C@H](CC2CCCCC2)n2cnc(S(=O)(=O)C3CC3)c2)nc1" has what recorded pEC50?
6.95

What about "O=C(O)c1ccc(NC(=O)[C@H](CC2CCCC2)n2cnc(S(=O)(=O)C3CC3)c2)nc1" ?
6.86

What about "O=C(O)c1ccc(NC(=O)[C@H](CC2CCCCC2)n2cnc(S(=O)(=O)C3CCC3)c2)nc1" ?
6.64

I: O=C(O)c1ccc(NC(=O)[C@H](CC2CCCC2)n2cnc(S(=O)(=O)C3CCC3)c2)nc1
II: O=C(O)c1ccc(NC(=O)[C@H](CC2CCOCC2)n2cnc(S(=O)(=O)C3CC3)c2)nc1
Which numeric pEC50 is bigger, that of I or that of II ? I would appreciate it if you answered with the label of your choice.
I

====

Biological target: Hexokinase-4 (Homo sapiens)
Sequence (whole entry): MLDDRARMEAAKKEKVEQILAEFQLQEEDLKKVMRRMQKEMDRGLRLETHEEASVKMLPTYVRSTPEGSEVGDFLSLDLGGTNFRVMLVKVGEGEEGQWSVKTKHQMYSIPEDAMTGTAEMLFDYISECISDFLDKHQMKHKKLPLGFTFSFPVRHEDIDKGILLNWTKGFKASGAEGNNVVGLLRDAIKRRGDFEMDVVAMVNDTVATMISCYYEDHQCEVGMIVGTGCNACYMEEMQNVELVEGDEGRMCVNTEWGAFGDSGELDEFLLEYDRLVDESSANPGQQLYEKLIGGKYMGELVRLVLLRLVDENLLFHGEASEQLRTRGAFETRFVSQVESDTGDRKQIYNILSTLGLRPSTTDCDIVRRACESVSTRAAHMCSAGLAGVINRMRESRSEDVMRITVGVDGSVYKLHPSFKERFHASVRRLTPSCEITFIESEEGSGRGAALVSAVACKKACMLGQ
Experiment: Activation of recombinant human glucokinase assessed as decrease in enzyme Km for glucose by G6PDH/NADP coupled assay relative to control
property.label: fold change (FC)

Completed entries (count: 3):
Item "O=C(O)c1ccc(NC(=O)[C@H](CC2CCCCC2)n2cnc(S(=O)(=O)C3CC3)c2)nc1" has what recorded fold change (FC)?
0.08

What about "O=C(O)c1ccc(NC(=O)[C@H](CC2CCOCC2)n2cnc(S(=O)(=O)C3CC3)c2)nc1" ?
0.11

What about "O=C(O)c1ccc(NC(=O)[C@H](CC2CCCC2)n2cnc(S(=O)(=O)C3CCC3)c2)nc1" ?
0.06

A: O=C(O)c1ccc(NC(=O)[C@H](CC2CCCC2)n2cnc(S(=O)(=O)C3CC3)c2)nc1
B: O=C(O)c1ccc(NC(=O)[C@H](CC2CCCCC2)n2cnc(S(=O)(=O)C3CCC3)c2)nc1
Which value of fold change (FC) is smaller, the one for A or the one for B ? I would appreciate it if you answered with the label of your choice.
A
